tested on: basil 'Genovese'; test: Visual injury of basil after insecticide, fungicide, PGRs, safeners (Example 4); conditions: 7 DA-A, rates g ai/ha: chlropyrifos 1120, chlorothalonil 2630, paclobutrazol 3.23, mepiquat-chloride 12.3, Isoxadifen 8, Napthalic anhydride 264, + NIS 0.25 % v/v
experimental endpoint: Phytotoxicity Stunting
# answer = value followed by unit

# example entries with known answers
INSERT INTO measurements (molecule, experimental_endpoint, reported_measurement) VALUES
  ('O=C1OC(=O)c2cccc3cccc1c23 [napthalic anhydride]', 'Phytotoxicity Stunting', '0%'),
  ('CCOC(=O)C1=NOC(c2ccccc2)(c2ccccc2)C1 [isoxadifen, isoxadifen-ethyl]', 'Phytotoxicity Stunting', '2%'),
  ('CCOP(=S)(OCC)Oc1nc(Cl)c(Cl)cc1Cl [chlropyrifos]', 'Phytotoxicity Stunting', '5%');

Record N#Cc1c(Cl)c(Cl)c(Cl)c(C#N)c1Cl [chlorothalonil] / basil 'Genovese', Phytotoxicity Stunting recorded as 5%

Lab entry: basil 'Genovese' assay, molecule C[N+]1(C)CCCCC1 [mepiquat-chloride] , Phytotoxicity Stunting = 3%

Phytotoxicity Stunting on basil 'Genovese' for CC(C)(C)[C@@H](O)[C@@H](Cc1ccc(Cl)cc1)n1cncn1 (racemic) [paclobutrazol] is 3%

---

tested on: basil 'Genovese'; test: Visual injury of basil after insecticide, fungicide, PGRs, safeners (Example 4); conditions: 28 DA-A, rates g ai/ha: chlropyrifos 1120, chlorothalonil 2630, paclobutrazol 3.23, mepiquat-chloride 12.3, Isoxadifen 8, Napthalic anhydride 264, + NIS 0.25 % v/v
experimental endpoint: Phytotoxicity Chlorosis (%)
Report the figure in % without appending any unit label.

Consider the following illustrative entries.
INSERT INTO measurements (compound, result_units, reported_measurement) VALUES
  ('CCOP(=S)(OCC)Oc1nc(Cl)c(Cl)cc1Cl', '%', 5),
  ('N#Cc1c(Cl)c(Cl)c(Cl)c(C#N)c1Cl', '%', 5),
  ('C[N+]1(C)CCCCC1 [mepiquat-chloride]', '%', 2),
  ('CCOC(=O)C1=NOC(c2ccccc2)(c2ccccc2)C1', '%', 2),
  ('O=C1OC(=O)c2cccc3cccc1c23 [napthalic anhydride]', '%', 2);

Continue with the compound presented below.
Phytotoxicity Chlorosis for CC(C)(C)[C@@H](O)[C@@H](Cc1ccc(Cl)cc1)n1cncn1 (racemic) is 3

---

system: kale 'Red Russian'; test: Visual injury of kale after insecticide, fungicide, PGRs, safeners (Example 4); settings: 7 DA-A, rates g ai/ha: chlropyrifos 1120, chlorothalonil 2630, paclobutrazol 3.23, mepiquat-chloride 12.3, + NIS 0.25 % v/v
experimental endpoint: Phytotoxicity General (%)
Provide only the numeric value, understood in %.

INSERT INTO assay_data (molecule, target_desc, reported_measurement) VALUES
  ('C[N+]1(C)CCCCC1 [mepiquat-chloride]', 'kale ''Red Russian''', 9);

Entry under test: `CCOP(=S)(OCC)Oc1nc(Cl)c(Cl)cc1Cl` . Its Phytotoxicity General was 14

Memo: CC(C)(C)[C@@H](O)[C@@H](Cc1ccc(Cl)cc1)n1cncn1 (racemic) , reported Phytotoxicity General: 10

// sample `N#Cc1c(Cl)c(Cl)c(Cl)c(C#N)c1Cl` , its Phytotoxicity General was 15

---

test system: kale 'Red Russian'; experiment: Content analysis of kale: protein, amino acids, fiber, fatty acids, minerals (Example 4, Tables 12-14); type: in vivo; details: 28 DA-A, rates g ai/ha: chlropyrifos 3370, chlorothalonil 7900, paclobutrazol 9.7, mepiquat-chloride 37, + NIS 0.25 % v/v
# Iron, Percent Increase Over the Untreated Check (on a % dry matter basis) per entry
Please give a number only; it is taken to be in % check.

Use these answered entries as a reference point.
INSERT INTO assay_data (compound, target_desc, reported_measurement) VALUES
  ('CC(C)(C)[C@@H](O)[C@@H](Cc1ccc(Cl)cc1)n1cncn1 (racemic) [paclobutrazol]', 'kale ''Red Russian''', '−5'),
  ('C[N+]1(C)CCCCC1 [mepiquat-chloride]', 'kale ''Red Russian''', '−4');

What the record says about CCOP(=S)(OCC)Oc1nc(Cl)c(Cl)cc1Cl [chlropyrifos] : Iron, Percent Increase Over the Untreated Check (on a % dry matter basis) is 3

Record N#Cc1c(Cl)c(Cl)c(Cl)c(C#N)c1Cl [chlorothalonil] , field Iron, Percent Increase Over the Untreated Check (on a % dry matter basis): −3

---

system: basil 'Genovese'; experiment: Content analysis of basil: protein, minerals (Example 4, Tables 10-11); type: in vivo; conditions: 28 DA-A, rates g ai/ha: chlropyrifos 1120, chlorothalonil 2630, paclobutrazol 3.23, mepiquat-chloride 12.3, Isoxadifen 8, Napthalic anhydride 264, + NIS 0.25 % v/v
experimental endpoint: ADF, Percent Increase Over the Untreated Check (on a % dry matter basis) (% check)
Respond with the bare value in % check.

INSERT INTO measurements (compound, reported_measurement) VALUES
  ('O=C1OC(=O)c2cccc3cccc1c23 [napthalic anhydride]', 13),
  ('CC(C)(C)[C@@H](O)[C@@H](Cc1ccc(Cl)cc1)n1cncn1 (racemic) [paclobutrazol]', 7),
  ('N#Cc1c(Cl)c(Cl)c(Cl)c(C#N)c1Cl [chlorothalonil]', 1),
  ('CCOP(=S)(OCC)Oc1nc(Cl)c(Cl)cc1Cl [chlropyrifos]', '−12'),
  ('C[N+]1(C)CCCCC1 [mepiquat-chloride]', 7);

Here is the next item to consider.
Entry CCOC(=O)C1=NOC(c2ccccc2)(c2ccccc2)C1 [isoxadifen, isoxadifen-ethyl] — recorded ADF, Percent Increase Over the Untreated Check (on a % dry matter basis) = 6

---

Some compounds, each annotated with its measured Phytotoxicity General.
System: kale 'Red Russian'
Experiment: Visual injury of kale after insecticide, fungicide, PGRs, safeners (Example 4)
Conditions: 7 DA-A, rates g ai/ha: chlropyrifos 3370, chlorothalonil 7900, paclobutrazol 9.7, mepiquat-chloride 37, + NIS 0.25 % v/v
Description: Greenhouse and laboratory studies were conducted to ascertain the tolerance and nutritional quality differences following postemergence applications of the insecticide chlorpyrifos, the fungicide chlorothalonil, the PGRs mepiquat-chloride and paclobutrazol, and the safeners napthalic anhydride and isoxadifen-ethyl on kale ‘Red Russian’ and basil ‘Genovese’. […]
Numbers only here, please. The scale is %.

Known Phytotoxicity General results, listed for orientation:
INSERT INTO assay_data (compound, target_desc, result_units, reported_measurement) VALUES
  ('C[N+]1(C)CCCCC1 [mepiquat-chloride]', 'kale ''Red Russian''', '%', 10),
  ('CCOP(=S)(OCC)Oc1nc(Cl)c(Cl)cc1Cl', 'kale ''Red Russian''', '%', 13),
  ('CC(C)(C)[C@@H](O)[C@@H](Cc1ccc(Cl)cc1)n1cncn1 (racemic)', 'kale ''Red Russian''', '%', 9);

Could you now look at the following compound, please?
Lab entry: kale 'Red Russian' assay, compound `N#Cc1c(Cl)c(Cl)c(Cl)c(C#N)c1Cl` , Phytotoxicity General = 9

---

tested on: kale 'Red Russian'; assay: Content analysis of kale: protein, amino acids, fiber, fatty acids, minerals (Example 4, Tables 12-14); type: in vivo; settings: 28 DA-A, second-listed rate g ai/ha: chlropyrifos ###, chlorothalonil ###, paclobutrazol 9.7, mepiquat-chloride 37, + NIS 0.3 % v/v
experimental endpoint: Total Protein, Percent Increase over the Untreated Check (on a % dry matter basis) (% check)
Give the number; % check is assumed, so skip it.

Below, 3 molecules whose answers are already recorded.
INSERT INTO measurements (molecule, reported_measurement) VALUES
  ('C[N+]1(C)CCCCC1 [mepiquat-chloride]', 0),
  ('N#Cc1c(Cl)c(Cl)c(Cl)c(C#N)c1Cl', '−3'),
  ('CCOP(=S)(OCC)Oc1nc(Cl)c(Cl)cc1Cl', 5);

Looking up CC(C)(C)[C@@H](O)[C@@H](Cc1ccc(Cl)cc1)n1cncn1 (racemic) , I found its Total Protein, Percent Increase over the Untreated Check (on a % dry matter basis) recorded as 13

---

Form field: Phytotoxicity General (one value per entry).
test system: kale 'Red Russian'; test: Visual injury of kale after insecticide, fungicide, PGRs, safeners (Example 4); conditions: 14 DA-A, rates g ai/ha: chlropyrifos 3370, chlorothalonil 7900, paclobutrazol 9.7, mepiquat-chloride 37, + NIS 0.25 % v/v
Field: numeric (%). Do not append units.

Observe how each entry below is paired with its result.
INSERT INTO results (molecule, experimental_endpoint, reported_measurement) VALUES
  ('CCOP(=S)(OCC)Oc1nc(Cl)c(Cl)cc1Cl', 'Phytotoxicity General', 5),
  ('CC(C)(C)[C@@H](O)[C@@H](Cc1ccc(Cl)cc1)n1cncn1 (racemic)', 'Phytotoxicity General', 6),
  ('C[N+]1(C)CCCCC1 [mepiquat-chloride]', 'Phytotoxicity General', 0);

Now for a further molecule.
Recorded Phytotoxicity General (molecule `N#Cc1c(Cl)c(Cl)c(Cl)c(C#N)c1Cl` ): 1

meta.source: patent US20110053773A1
